Every entry's value here was drawn from patent US5298494A.

System: T cell proliferation in mouse spleen cell mixed lymphocyte cultures
Experiment: Mixed Lymphocyte Reaction (MLR) assay
Type: cell-based, mouse (Balb/c responder, C57B1/6 stimulator)
Settings: 100 um
MEASUREMENT_TYPE: Mean O.D. Syngeneic (O.D.)
Quick note: give the figure in O.D., leave out the unit.

I would be grateful if you could share the reported Mean O.D. Syngeneic for CCCCCCCO[C@@H]1[C@@H](CO)O[C@@]2(OC)COC(C)(C)O[C@@H]12 [Ic] .
0.077

Return reported Mean O.D. Syngeneic; argument: CC1(C)OC2OC(C(O)COCCCc3ccccc3)C(O)C2O1 (stereo not shown) [IIIe]
0.024

Tell me the measured Mean O.D. Syngeneic of CCCCC/C=C/COC[C@H]1O[C@@]2(OC)COC(C)(C)O[C@H]2[C@@H]1OC/C=C/CCCCC [Ie] , please.
0.146

Mean O.D. Syngeneic for CCCCC/C=C\COC[C@H]1O[C@@]2(OC)COC(C)(C)O[C@H]2[C@@H]1OC/C=C\CCCCC [If] ?
0.025
